I'd appreciate it if you could supply activity at 6 µM values for the items below.
System: K562 cells, human proerythroblast cells
Experiment: Hemoglobin production in K562 cells (fluorescence of the porphyrin ring)
Format: cell-based
Settings: 144 h, test compound 6 μM, 3+3 days, non-stimulated state = 100%, read-out: production amount of hemoglobin, % of control (6 μM)
Use % as the unit, but write only the number.

If you can, please state the reported activity at 6 µM value of CC(=O)N1c2ccccc2C(Nc2ccc(F)cc2)CC1C (centres unmarked) .
409

Item under review: CC(=O)N1c2ccc(C(=O)NN)cc2C(Nc2ccc(Cl)cc2)CC1C (centres unmarked) . Reported activity at 6 µM?
163

Give the measured activity at 6 µM of CC(=O)N1c2ccc(C(=O)O)cc2C(Nc2ccc(Cl)cc2)CC1C (centres unmarked) .
303

Given the compound CC(=O)N1c2ccccc2C(Nc2ccc(N3CCNCC3)cc2)CC1C (centres unmarked) , what is its reported activity at 6 µM?
185

# lookup: activity at 6 µM of CCOC(=O)Cc1ccc(NC2CC(C)N(C(C)=O)c3ccc(NS(C)(=O)=O)cc32)cc1 (centres unmarked)
69

====

System: K562 cells, human proerythroblast cells
Test: Hemoglobin production in K562 cells (fluorescence of the porphyrin ring)
Type: cell-based
Conditions: 144 h, test compound 6 μM, 3+3 days, non-stimulated state = 100%, read-out: production amount of hemoglobin, % of control (6 μM)
Counter-ions that a name gives are not always drawn.
readoutType: activity at 6 µM
Dear colleague, please send the value followed by its unit.

// query activity at 6 µM value for entry CC(=O)N1c2ccccc2[C@H](Oc2ccc(F)cc2F)C[C@@H]1C (relative stereo) [Compound 30]
136%

Query: activity at 6 µM; subject: CC(=O)N1c2ccc(N3CCN(C(=O)c4ccccc4)CC3)cc2C(Nc2ccc(Cl)cc2)CC1C (stereo not drawn) [Compound 86]
237%

Give its activity at 6 µM value. Item: CC(=O)Nc1ccc2c(c1)C(Nc1ccc(Cl)cc1)CC(C)N2C(C)=O (stereo not drawn) [Compound 96]
530%

State the recorded activity at 6 µM for this entry: CC(=O)N1c2ccc(N)cc2C(Nc2ccc(Cl)cc2)CC1C (stereo not drawn) [Compound 95]
158%

Consider the compound CC1CC(Nc2ccc(F)cc2)c2cc(F)ccc2N1C(=O)C1CCCC1 (stereo not drawn) [Compound 66] and give its measured activity at 6 µM.
151%

Fill in the blank: the reported activity at 6 µM of CC(=O)N1c2ccc(N3CCOCC3)cc2C(Nc2ccc(CC(N)=O)cc2)CC1C (stereo not drawn) [Compound 90] is ____.
241%

Value lookup for activity at 6 µM; key = COc1ccc2c(c1)N(C(C)=O)C(C)CC2Nc1ccccc1 (stereo not drawn) [Compound 48]
139%

What does the record list as activity at 6 µM for CCOC(=O)c1ccc2c(c1)C(Nc1ccc(NS(C)(=O)=O)cc1)CC(C)N2C(C)=O (stereo not drawn) [Compound 101] ?
508%

Entry CCC1CC(Nc2ccccc2)c2ccccc2N1C(C)=O (stereo not drawn) [Compound 59] : reported activity at 6 µM = ?
108%

GET /values?readout=activity at 6 µM&item= CC(=O)N1c2ccc(C(N)=O)cc2C(Nc2ccc(CC#N)cc2)CC1C (stereo not drawn) [Compound 104]
536%

What value of activity at 6 µM has been recorded for this entry: CC(=O)N1CC(C)(C)C(Nc2ccccc2)c2ccccc21 (stereo not drawn) [Compound 60]
113%

Can you look up the measured activity at 6 µM of CC(=O)N1CCN(c2ccc(N[C@@H]3C[C@H](C)N(C(C)=O)c4ccccc43)cc2)CC1 (relative stereo) [Compound 77] for me?
120%

Record request: activity at 6 µM value, item CC(=O)N1c2ccc(NS(C)(=O)=O)cc2C(Nc2ccc(N3CCOCC3)cc2)CC1C (stereo not drawn) [Compound 98]
56%

Sample CC(=O)N1c2ccccc2[C@H](Oc2ccccc2F)C[C@@H]1C (relative stereo) [Compound 29] — what was its activity at 6 µM?
201%

Requested read-out: activity at 6 µM. Entry: CC(=O)N1c2ccc(N3CC(C)OC(C)C3)cc2C(Nc2ccc(NS(C)(=O)=O)cc2)CC1C (stereo not drawn) [Compound 110, hydrochloride]
211%

Recorded activity at 6 µM of CC(=O)N1CCN(c2ccc3c(c2)[C@H](Nc2ccc(Cl)cc2)C[C@H](C)N3C(C)=O)CC1 (relative stereo) [Compound 79] , please.
186%

Requested field: activity at 6 µM. Item: CC(=O)N1c2cc(F)ccc2[C@H](Oc2ccc(F)cc2)C[C@@H]1C (relative stereo) [Compound 56]
119%

Quick one: activity at 6 µM of CC(=O)N1c2ccccc2[C@H](Oc2ccccc2)C[C@@H]1C (relative stereo) [Compound 26] ?
188%

What does the record list as activity at 6 µM for CC(=O)N1c2ccccc2[C@H](Oc2ccc(F)c(F)c2)C[C@@H]1C (relative stereo) [Compound 31] ?
156%

Requested field: activity at 6 µM. Item: CC(=O)N1c2ccccc2[C@H](Oc2ccc(O)cc2)C[C@@H]1C (relative stereo) [Compound 57]
221%

Recorded activity at 6 µM of CC(=O)N1c2ccc(N3CCN(C(=O)C(C)C)CC3)cc2C(Nc2ccc(NS(C)(=O)=O)cc2)CC1C (stereo not drawn) [Compound 111] , please.
46%

Sample CC(=O)N1c2ccccc2C(Nc2ccc(Cl)cc2)CC1C (stereo not drawn) [Compound 8] — what was its activity at 6 µM?
412%

Field request: activity at 6 µM | item: CC(=O)N1c2ccc(C(=O)N(C)C)cc2C(Nc2ccc(Cl)cc2)CC1C (stereo not drawn) [Compound 113]
163%

Given the compound CC(=O)N1c2ccc(N3CCN(C(=O)C4CCCCC4)CC3)cc2C(Nc2ccc(Cl)cc2)CC1C (stereo not drawn) [Compound 85] , what is its reported activity at 6 µM?
189%

# query: activity at 6 µM of entry CC(=O)N1c2ccccc2C(N(C)c2ccccc2)CC1C (stereo not drawn) [Compound 46]
326%

Reported activity at 6 µM for CC(=O)N1c2ccccc2C(Nc2ccc(C(C)C)cc2)CC1C (stereo not drawn) [Compound 21] : what is it?
301%

Using the record for CC(=O)N1c2ccccc2C(Nc2ccc(N(C)C)cc2)CC1C (stereo not drawn) [Compound 20, hydrochloride] , report its activity at 6 µM.
117%

Would you kindly share the measured activity at 6 µM for COc1ccc(NC2CC(C)N(C(C)=O)c3ccccc32)cc1 (stereo not drawn) [Compound 10] ?
409%

// returns reported activity at 6 µM for input CC(=O)N1c2ccc(F)cc2C(Nc2ccc(CC(=O)N(C)C)cc2)CC1C (stereo not drawn) [Compound 125]
118%

Given CC(=O)N1c2ccc(C(N)=O)cc2C(Nc2ccc(N3CCOCC3)cc2)CC1C (stereo not drawn) [Compound 92] , state its recorded activity at 6 µM.
128%

Any idea what its activity at 6 µM is? The compound is COc1ccc2c(c1)C(Nc1ccc(F)cc1)CC(C)N2C(C)=O (stereo not drawn) [Compound 37]
494%

Quick one: activity at 6 µM for CC(=O)N1c2ccc(N3CCOCC3)cc2C(Nc2ccc(Cl)cc2)CC1C (stereo not drawn) [Compound 40] ?
256%

Field request: activity at 6 µM | item: CC(=O)N1c2ccccc2C(Nc2ccc(NS(C)(=O)=O)cc2)CC1C (stereo not drawn) [Compound 39]
327%

====

Tested on: K562 cells, human proerythroblast cells
Assay: Hemoglobin production in K562 cells (fluorescence of the porphyrin ring)
Format: cell-based
Conditions: 144 h, test compound 6 μM, 3+3 days, non-stimulated state = 100%, read-out: production amount of hemoglobin, % of control (6 μM)
Kindly apply the following: condition met if activity at 6 µM is less than 200%, condition not met in every other case.

Here's an entry: CC(=O)N1c2ccccc2C(Nc2ccc(Oc3ccccc3)cc2)CC1C (centres unmarked) . Is its activity at 6 µM below 200%?
condition not met

Would you kindly verify if activity at 6 µM of CC(=O)N1c2ccc(N3CC(C)OC(C)C3)cc2C(Nc2ccc(Cl)cc2)CC1C (centres unmarked) is strictly less than 200%?
condition not met

Criterion: activity at 6 µM strictly below 200%. Is it met by C[C@H]1C[C@@H](Nc2ccc(F)cc2)c2cc(F)ccc2N1C(=O)C1CCCCC1 (relative stereo) ?
condition not met

Determine if CC(=O)N1c2ccc(NS(C)(=O)=O)cc2C(Nc2ccc(Cl)cc2)CC1C (centres unmarked) shows activity at 6 µM strictly lower than 200%.
condition not met

Could you please tell me whether activity at 6 µM recorded for CC(=O)N1c2ccc(Br)cc2C(Nc2ccc(Cl)cc2)CC1C (centres unmarked) is less than 200%?
condition not met

Just wondering, is activity at 6 µM of CCOC(=O)Nc1ccc2c(c1)C(Nc1ccc(Cl)cc1)CC(C)N2C(C)=O (centres unmarked) below 200%?
condition not met

Lab note: activity at 6 µM threshold 200%. Does this molecule come in strictly under it? CCOC(=O)Cc1ccc(NC2CC(C)N(C(C)=O)c3ccc(F)cc32)cc1 (centres unmarked)
condition not met

Record CC(=O)N1c2cc(Br)ccc2[C@H](Nc2ccccc2)C[C@@H]1C (relative stereo) : is its activity at 6 µM strictly below 200%?
condition not met

Say whether its activity at 6 µM is strictly beneath 200%. Entry: CCOC(=O)c1ccc2c(c1)C(Nc1ccc(CC#N)cc1)CC(C)N2C(C)=O (centres unmarked)
condition not met

Field: below-cutoff. Rule: recorded activity at 6 µM strictly less than 200%. Subject: CC(=O)N1c2c(F)cccc2[C@H](Nc2ccccc2F)C[C@@H]1C (relative stereo)
condition met

Is 200% strictly greater than the molecule's reported activity at 6 µM? molecule: CNC(=O)c1ccc2c(c1)C(Nc1ccc(Cl)cc1)CC(C)N2C(C)=O (centres unmarked)
condition met

Say whether its activity at 6 µM is strictly beneath 200%. Entry: CC(=O)N1c2ccc(N3CCOCC3)cc2C(Nc2ccc(CC(=O)O)cc2)CC1C (centres unmarked)
condition met

Given CC(=O)N1c2ccc(F)cc2[C@H](Oc2ccc(F)cc2)C[C@@H]1C (relative stereo) , is recorded activity at 6 µM strictly lower than 200%?
condition not met

Threshold test, activity at 6 µM < 200%: CC(=O)N1c2ccc(C(=O)N3CCOCC3)cc2C(Nc2ccc(Cl)cc2)CC1C (centres unmarked)
condition not met

Decide: activity at 6 µM of CC(=O)N1c2cc(NS(C)(=O)=O)ccc2C(Nc2ccc(Cl)cc2)CC1C (centres unmarked) strictly below 200%?
condition met

Given the entry CC(=O)N1c2ccccc2[C@H](Oc2cc(F)cc(F)c2)C[C@@H]1C (relative stereo) , would its reported activity at 6 µM be below 200%?
condition met

I'd appreciate it if you could check whether CC(=O)N1c2ccccc2[C@H](Oc2cccc(F)c2)C[C@@H]1C (relative stereo) has activity at 6 µM smaller than 200%.
condition not met
